- system.name: T1, extracellular domain (ECD) of human αKlotho, amino acids E34-S981 with C-terminal 6-His tag (R&D Systems … (human, UniProt Q9UEF7 34-981))
- T1 construct: range 34-981; also called αKlotho (aa34-981); target antigen
- T1 sequence: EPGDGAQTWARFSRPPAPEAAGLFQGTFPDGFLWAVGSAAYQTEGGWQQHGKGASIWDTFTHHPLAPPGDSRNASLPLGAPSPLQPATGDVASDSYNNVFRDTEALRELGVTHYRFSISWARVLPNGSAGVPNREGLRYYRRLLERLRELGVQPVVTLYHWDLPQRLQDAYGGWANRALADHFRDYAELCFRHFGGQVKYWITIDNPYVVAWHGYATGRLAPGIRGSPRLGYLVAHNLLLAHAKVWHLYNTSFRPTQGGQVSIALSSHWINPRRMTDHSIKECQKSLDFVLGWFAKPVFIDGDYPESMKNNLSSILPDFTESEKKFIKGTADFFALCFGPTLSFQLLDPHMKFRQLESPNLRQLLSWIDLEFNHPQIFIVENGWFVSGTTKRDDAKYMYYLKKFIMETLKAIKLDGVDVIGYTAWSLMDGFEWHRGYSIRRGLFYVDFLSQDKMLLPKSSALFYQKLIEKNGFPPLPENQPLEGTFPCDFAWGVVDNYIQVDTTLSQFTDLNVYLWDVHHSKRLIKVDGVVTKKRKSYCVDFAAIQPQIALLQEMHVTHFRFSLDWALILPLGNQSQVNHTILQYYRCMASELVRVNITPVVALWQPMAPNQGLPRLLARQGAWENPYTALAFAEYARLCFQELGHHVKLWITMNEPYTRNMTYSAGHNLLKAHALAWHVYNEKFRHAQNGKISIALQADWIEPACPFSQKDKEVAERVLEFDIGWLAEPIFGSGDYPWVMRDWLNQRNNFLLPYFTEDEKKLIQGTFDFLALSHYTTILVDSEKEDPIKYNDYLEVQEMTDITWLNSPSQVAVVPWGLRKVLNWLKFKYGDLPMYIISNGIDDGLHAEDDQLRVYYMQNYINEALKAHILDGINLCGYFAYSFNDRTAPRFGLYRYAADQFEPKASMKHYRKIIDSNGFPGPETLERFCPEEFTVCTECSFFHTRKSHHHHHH
- assay.details: SPR, Fab captured by anti-H+L IgG, αKlotho injected at 50 to 6.25 ug/ml, Langmuir fit
Parameter Kd: see the listing below.
Numbers only here, please. The scale is nM.

Reference set (2 entries):
[[record]]
binder = "anti-αKlotho Fab clone 4804 (Fab, V domains shown, Fab (also as Fab-phage); FLAG tag on light chain C-terminus; also called sb173) VH: EVQLVESGGGLVQPGGSLRLSCAASGFNLYSYSIHWVRQAPGKGLEWVAYISSSSGSTYYADSVKGRFTISADTSKNTAYLQMNSLRAEDTAVYYCARGWGGGYWFYPVYGIDYWGQGTLVTVSS VL: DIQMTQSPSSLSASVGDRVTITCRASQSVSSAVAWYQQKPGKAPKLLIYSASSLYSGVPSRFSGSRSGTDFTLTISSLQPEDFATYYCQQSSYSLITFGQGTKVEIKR"
numeric_result = 0.516

[[record]]
binder = "sb106 Fab (Fab, V domains shown, also called Fsb106; clone 48) VH: EVQLVESGGGLVQPGGSLRLSCAASGFNISYYSIHWVRQAPGKGLEWVAYISPSYGYTSYADSVKGRFTISADTSKNTAYLQMNSLRAEDTAVYYCARYYVYASHGWAGYGMDYWGQGTLVTVSS VL: DIQMTQSPSSLSASVGDRVTITCRASQSVSSAVAWYQQKPGKAPKLLIYSASSLYSGVPSRFSGSRSGTDFTLTISSLQPEDFATYYCQQAGYSPITFGQGTKVEIKR"
numeric_result = 1.08


// next item, Kd requested
// Input: anti-αKlotho Fab clone 4807 (Fab, V domains shown, Fab (also as Fab-phage); FLAG tag on light chain; also called sb176) VH: EVQLVESGGGLVQPGGSLRLSCAASGFNLSSSYMHWVRQAPGKGLEWVASIYPSYGSTSYADSVKGRFTISADTSKNTAYLQMNSLRAEDTAVYYCARGVVPSYYYWFWPYGAIDYWGQGTLVTVSS VL: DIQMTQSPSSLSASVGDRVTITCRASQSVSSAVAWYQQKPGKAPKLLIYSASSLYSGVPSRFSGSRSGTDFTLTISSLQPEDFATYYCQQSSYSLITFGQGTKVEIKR . Output its Kd only. 3.5
